Tested on: RARg:RXRa (NR concentration 270 nM, RXRa partner concentration 90 nM)
Experiment: PBM binding z-score (relative to random genomic background probes); higher = stronger binding; sequences stand for … in GC…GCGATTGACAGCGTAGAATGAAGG
Please respond with reported PBM binding z-score for every item in the list.
Give bare numbers.

Reference set (3 entries):
# sequenceString, studySystem, PBM binding z-score
rows = [
    ("TCGAGTAGGTTACCAATGGGGTATTCAGCTTTCT", "RARg:RXRa (NR concentration 270 nM, RXRa partner concentration 90 nM)", 0.0634),
    ("GCATATAGGTAATACAAGGTAAAAGTCCGATTGT", "RARg:RXRa (NR concentration 270 nM, RXRa partner concentration 90 nM)", 0.25),
    ("CCCACTGGGGCATAAGGTTACCATAAGCCAGCCC", "RARg:RXRa (NR concentration 270 nM, RXRa partner concentration 90 nM)", 1.56),
]

Could you now look at the following sequence, please?
Asked: I would be grateful if you could share the reported PBM binding z-score for CAAACTAGGTCACCGGAAGGTAAAAGTCCGCATG .
Given back: 5.33
